Target: Somatostatin receptor type 1 (Homo sapiens, UniProt P30872)
Sequence (P30872 whole entry): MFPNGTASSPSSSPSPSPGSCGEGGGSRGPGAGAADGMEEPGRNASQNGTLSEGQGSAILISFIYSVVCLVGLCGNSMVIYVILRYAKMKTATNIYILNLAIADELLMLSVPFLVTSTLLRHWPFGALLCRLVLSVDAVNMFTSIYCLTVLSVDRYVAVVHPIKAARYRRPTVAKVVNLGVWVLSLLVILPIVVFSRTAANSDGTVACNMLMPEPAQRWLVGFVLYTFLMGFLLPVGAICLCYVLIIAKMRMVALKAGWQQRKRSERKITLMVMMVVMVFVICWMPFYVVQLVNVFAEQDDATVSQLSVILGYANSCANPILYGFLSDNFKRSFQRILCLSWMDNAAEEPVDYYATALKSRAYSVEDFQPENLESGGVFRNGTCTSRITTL
Positions of bridges follow the written chain, without caps; N, C: chain ends. Non-standard residues stand in square brackets, D forms with d. Residues, ends and D or L forms follow the SMILES beside them. Phe(4-CH2NHiPr) = CC(C)NCc1ccc(C[C@H](N)C(=O)O)cc1
Assignment: determine reported pIC50 for the given compounds.
pIC50 field: float, defined as -log10 of concentration (mol/L).

INPUT: Give pIC50 for this entry on Somatostatin receptor type 1 (Homo sapiens, UniProt P30872): CC(C)NCc1ccc(C[C@@H]2NC(=O)[C@@H](Cc3ccc4ccccc4c3)NC(=O)[C@H](Cc3ccccc3)NC(=O)[C@H](Cc3ccccc3)NC(=O)[C@H](CCCCN)NC(=O)[C@@H](N)CSSC[C@@H](C(=O)O)NC(=O)[C@H](CO)NC(=O)[C@H]([C@@H](C)O)N(C)C(=O)[C@H](Cc3ccccc3)NC(=O)[C@H]([C@@H](C)O)NC2=O)cc1
OUTPUT: 6.75

INPUT: Give pIC50 for this entry on Somatostatin receptor type 1 (Homo sapiens, UniProt P30872): CC(C)NCc1ccc(C[C@@H]2NC(=O)[C@H](Cc3c[nH]c4ccccc34)NC(=O)[C@H](Cc3ccccc3)NC(=O)[C@H](Cc3ccccc3)NC(=O)[C@H](CCCCN)NC(=O)[C@@H](N)CSSC[C@@H](C(=O)O)NC(=O)[C@H](CO)NC(=O)[C@H]([C@@H](C)O)NC(=O)[C@H](Cc3ccc(O)cc3)NC(=O)[C@H]([C@@H](C)O)NC2=O)cc1 (H-CKFFW[Phe(4-CH2NHiPr)]TYTSC-OH; disulfide 1-11)
OUTPUT: 7.82

---

Target: Somatostatin receptor type 4 (Homo sapiens, UniProt P31391)
Sequence (P31391 whole entry): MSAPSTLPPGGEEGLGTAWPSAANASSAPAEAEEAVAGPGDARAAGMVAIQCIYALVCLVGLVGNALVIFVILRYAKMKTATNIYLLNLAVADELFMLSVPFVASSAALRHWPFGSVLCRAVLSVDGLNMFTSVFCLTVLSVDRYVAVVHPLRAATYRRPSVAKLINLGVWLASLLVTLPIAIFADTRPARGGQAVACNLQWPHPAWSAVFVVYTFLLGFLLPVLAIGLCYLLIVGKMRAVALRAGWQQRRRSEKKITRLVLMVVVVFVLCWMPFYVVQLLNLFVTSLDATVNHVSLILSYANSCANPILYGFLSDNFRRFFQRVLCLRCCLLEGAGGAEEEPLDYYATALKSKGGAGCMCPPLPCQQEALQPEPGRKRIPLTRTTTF
Positions of bridges follow the written chain, without caps; N, C: chain ends. Non-standard residues stand in square brackets, D forms with d. Residues, ends and D or L forms follow the SMILES beside them. Phe(4-CH2NHiPr) = CC(C)NCc1ccc(C[C@H](N)C(=O)O)cc1
Readout kind: IC50 (nM)
# number only, unit nM dropped from output

INPUT: Give reported IC50 value for CC(C)NCc1ccc(C[C@@H]2NC(=O)[C@H](Cc3c[nH]c4ccccc34)NC(=O)[C@H](Cc3ccccc3)NC(=O)[C@H](Cc3ccccc3)NC(=O)[C@H](CCCCN)NC(=O)[C@@H](N)CSSC[C@@H](C(=O)O)NC(=O)[C@H](CO)NC(=O)[C@H]([C@@H](C)O)NC(=O)[C@H](Cc3ccc(O)cc3)NC(=O)[C@H]([C@@H](C)O)NC2=O)cc1 (H-CKFFW[Phe(4-CH2NHiPr)]TYTSC-OH; disulfide 1-11)
OUTPUT: 384

---

Positions of bridges follow the written chain, without caps; N, C: chain ends. Non-standard residues stand in square brackets, D forms with d. Residues, ends and D or L forms follow the SMILES beside them. NMePhe(4-CH2NHiPr) = CN[C@@H](Cc1ccc(CNC(C)C)cc1)C(=O)O
Readout kind: pIC50
pIC50 field: float, defined as -log10 of concentration (mol/L).

INPUT: Give pIC50 for this entry on Somatostatin receptor type 4 (Homo sapiens, UniProt P31391): CC(C)NCc1ccc(C[C@H]2C(=O)N[C@@H]([C@@H](C)O)C(=O)N[C@@H](Cc3ccccc3)C(=O)N[C@@H]([C@@H](C)O)C(=O)N[C@@H](CO)C(=O)N[C@H](C(=O)O)CSSC[C@H](NC(=O)[C@@H](N)Cc3ccc(O)cc3)C(=O)N[C@@H](CCCCN)C(=O)N[C@@H](Cc3ccccc3)C(=O)N[C@@H](Cc3ccccc3)C(=O)N[C@H](Cc3c[nH]c4ccccc34)C(=O)N2C)cc1 (H-YCKFF[dW][NMePhe(4-CH2NHiPr)]TFTSC-OH; disulfide 2-12)
OUTPUT: 6.61

---

pIC50: −log10 of the molar value. Positions of bridges follow the written chain, without caps; N, C: chain ends. Non-standard residues stand in square brackets, D forms with d. Residues, ends and D or L forms follow the SMILES beside them. NMePhe(4-CH2NHiPr) = CN[C@@H](Cc1ccc(CNC(C)C)cc1)C(=O)O
Readout kind: pIC50

INPUT: Give pIC50 for this entry on Somatostatin receptor type 2 (Homo sapiens): CC(C)NCc1ccc(C[C@H]2C(=O)N[C@@H]([C@@H](C)O)C(=O)N[C@@H](Cc3ccccc3)C(=O)N[C@@H]([C@@H](C)O)C(=O)N[C@@H](CO)C(=O)N[C@H](C(=O)O)CSSC[C@H](NC(=O)[C@@H](N)Cc3ccc(O)cc3)C(=O)N[C@@H](CCCCN)C(=O)N[C@@H](Cc3ccccc3)C(=O)N[C@@H](Cc3ccccc3)C(=O)N[C@H](Cc3c[nH]c4ccccc34)C(=O)N2C)cc1 (H-YCKFF[dW][NMePhe(4-CH2NHiPr)]TFTSC-OH; disulfide 2-12)
OUTPUT: < 6.00

INPUT: Give pIC50 for this entry on Somatostatin receptor type 2 (Homo sapiens): CC(C)NCc1ccc(C[C@@H]2NC(=O)[C@@H](Cc3ccc4ccccc4c3)NC(=O)[C@H](Cc3ccccc3)NC(=O)[C@H](Cc3ccccc3)NC(=O)[C@H](CCCCN)NC(=O)[C@@H](N)CSSC[C@@H](C(=O)O)NC(=O)[C@H](CO)NC(=O)[C@H]([C@@H](C)O)NC(=O)[C@H](Cc3ccccc3)NC(=O)[C@H]([C@@H](C)O)N(C)C2=O)cc1
OUTPUT: < 6.00

INPUT: Give pIC50 for this entry on Somatostatin receptor type 2 (Homo sapiens): CC(C)NCc1ccc(C[C@H]2C(=O)N[C@@H]([C@@H](C)O)C(=O)N[C@@H](Cc3ccc(O)cc3)C(=O)N[C@@H]([C@@H](C)O)C(=O)N[C@@H](CO)C(=O)N[C@H](C(=O)O)CSSC[C@H](N)C(=O)N[C@@H](CCCCN)C(=O)N[C@@H](Cc3ccccc3)C(=O)N[C@@H](Cc3ccccc3)C(=O)N[C@H](Cc3c[nH]c4ccccc34)C(=O)N2C)cc1 (H-CKFF[dW][NMePhe(4-CH2NHiPr)]TYTSC-OH; disulfide 1-11)
OUTPUT: < 6.00

---

Target: Somatostatin receptor type 2 (Homo sapiens, UniProt P30874)
Sequence (P30874 whole entry): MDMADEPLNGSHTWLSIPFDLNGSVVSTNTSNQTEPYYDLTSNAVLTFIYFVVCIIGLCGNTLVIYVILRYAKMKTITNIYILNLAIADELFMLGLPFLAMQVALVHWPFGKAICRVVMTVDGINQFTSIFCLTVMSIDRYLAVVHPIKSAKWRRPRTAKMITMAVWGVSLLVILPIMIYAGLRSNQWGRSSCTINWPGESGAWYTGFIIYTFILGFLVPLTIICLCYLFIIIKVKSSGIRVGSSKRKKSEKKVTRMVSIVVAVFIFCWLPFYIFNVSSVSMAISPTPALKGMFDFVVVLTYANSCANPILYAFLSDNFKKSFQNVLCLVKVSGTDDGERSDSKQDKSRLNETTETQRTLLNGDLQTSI
Assay: Inhibition of [Leu8,D-Trp22,125I-Tyr25]SRIF-28 binding to human somatostatin receptor type 2
Positions of bridges follow the written chain, without caps; N, C: chain ends. Non-standard residues stand in square brackets, D forms with d. Residues, ends and D or L forms follow the SMILES beside them. Phe(4-CH2NHiPr) = CC(C)NCc1ccc(C[C@H](N)C(=O)O)cc1; NMeS = CN[C@@H](CO)C(=O)O
Readout kind: IC50

INPUT: Give reported IC50 value for CC(C)NCc1ccc(C[C@@H]2NC(=O)[C@@H](Cc3ccc4ccccc4c3)NC(=O)[C@H](Cc3ccccc3)NC(=O)[C@H](Cc3ccccc3)NC(=O)[C@H](CCCCN)NC(=O)[C@@H](N)CSSC[C@@H](C(=O)N[C@@H](CCCCN)C(=O)O)N(C)C(=O)[C@H](CO)NC(=O)[C@H]([C@@H](C)O)NC(=O)[C@H](Cc3ccccc3)NC(=O)[C@H]([C@@H](C)O)NC2=O)cc1
OUTPUT: > 1 µM

INPUT: Give reported IC50 value for CC(C)NCc1ccc(C[C@@H]2NC(=O)[C@@H](Cc3ccc4ccccc4c3)NC(=O)[C@H](Cc3ccccc3)N(C)C(=O)[C@H](Cc3ccccc3)NC(=O)[C@H](CCCCN)NC(=O)[C@@H](N)CSSC[C@@H](C(=O)O)NC(=O)[C@H](CO)NC(=O)[C@H]([C@@H](C)O)NC(=O)[C@H](Cc3ccccc3)NC(=O)[C@H]([C@@H](C)O)NC2=O)cc1
OUTPUT: > 1 µM

INPUT: Give reported IC50 value for CC(C)NCc1ccc(C[C@@H]2NC(=O)[C@@H](Cc3c[nH]c4ccccc34)NC(=O)[C@H](Cc3ccccc3)NC(=O)[C@H](Cc3ccccc3)NC(=O)[C@H](CCCCN)NC(=O)[C@@H](N)CSSC[C@@H](C(=O)O)NC(=O)[C@H](CO)N(C)C(=O)[C@H]([C@@H](C)O)NC(=O)[C@H](Cc3ccccc3)NC(=O)[C@H]([C@@H](C)O)NC2=O)cc1 (H-CKFF[dW][Phe(4-CH2NHiPr)]TFT[NMeS]C-OH; disulfide 1-11)
OUTPUT: > 1 µM

INPUT: Give reported IC50 value for CN[C@H]1CSSC[C@@H](C(=O)O)NC(=O)[C@H](CO)NC(=O)[C@H]([C@@H](C)O)NC(=O)[C@H](Cc2ccccc2)NC(=O)[C@H]([C@@H](C)O)NC(=O)[C@H](Cc2ccc(CNC(C)C)cc2)NC(=O)[C@@H](Cc2ccc3ccccc3c2)NC(=O)[C@H](Cc2ccccc2)NC(=O)[C@H](Cc2ccccc2)NC(=O)[C@H](CCCCN)NC1=O
OUTPUT: > 1 µM

INPUT: Give reported IC50 value for CC(C)NCc1ccc(C[C@@H]2NC(=O)[C@@H](Cc3ccc4ccccc4c3)NC(=O)[C@H](Cc3ccccc3)NC(=O)[C@H](Cc3ccccc3)NC(=O)[C@H](CCCCN)NC(=O)[C@@H](N)CSSC[C@@H](C(=O)O)NC(=O)[C@H](CO)N(C)C(=O)[C@H]([C@@H](C)O)NC(=O)[C@H](Cc3ccccc3)NC(=O)[C@H]([C@@H](C)O)NC2=O)cc1
OUTPUT: > 1 µM

INPUT: Give reported IC50 value for CC(C)NCc1ccc(C[C@@H]2NC(=O)[C@@H](Cc3c[nH]c4ccccc34)NC(=O)[C@H](Cc3ccccc3)NC(=O)[C@H](Cc3ccccc3)NC(=O)[C@H](CCCCN)NC(=O)[C@@H](N)CSSC[C@@H](C(=O)N[C@@H](CCCCN)C(=O)N[C@@H](CCCCN)C(=O)O)NC(=O)[C@H](CO)N(C)C(=O)[C@H]([C@@H](C)O)NC(=O)[C@H](Cc3ccccc3)NC(=O)[C@H]([C@@H](C)O)NC2=O)cc1
OUTPUT: > 1 µM
